test system: rabbit eye; assay: Conjunctival hyperemia after topical application in rabbits; type: in vivo; conditions: topical, conjunctival hyperemia scale 0 to 4, dose 0.5 μg, PGF2α-IE 0.1 μg
Label key: label 1 means Degree of hyperemia under 2; label 0 means Degree of hyperemia of 2 or more.

Below, 3 compounds whose answers are already recorded.
# Compound, Qualitative label
records = [
    ("CC(C)OC(=O)CCC/C=C\\C[C@@H]1[C@@H](/C=C/C(=O)CCc2ccccc2)[C@H](O)C[C@@H]1O [Substance 3]", "label 1"),
    ("CC(C)OC(=O)CCC/C=C\\C[C@@H]1[C@@H](CC[C@@H](O)CCc2ccccc2)[C@H](O)C[C@@H]1O [Substance 9]", "label 1"),
    ("CC(C)OC(=O)CCC/C=C\\C[C@H]1C(=O)C=C[C@@H]1CC[C@@H](O)CCc1ccccc1 [Substance 6]", "label 1"),
]

Task: Lab log: compare recorded Degree of hyperemia with 2; is it strictly lower for CCCCCC(C=CC1C(O)CC(=O)C1CC=CCCCC(=O)OC(C)C)OC(=O)CC (centres unmarked) [15-propionate-PGE2-IE, reference compound] ?
Output: label 0

Task: Lab log: compare recorded Degree of hyperemia with 2; is it strictly lower for CC(C)OC(=O)CCC/C=C\C[C@H]1C(=O)C[C@@H](O)[C@@H]1/C=C/[C@@H](O)CCc1ccccc1 [Substance 5] ?
Output: label 0

Task: Lab log: compare recorded Degree of hyperemia with 2; is it strictly lower for CCCCC[C@H](O)/C=C/[C@@H]1[C@@H](C/C=C\CCCC(=O)OC(C)C)[C@@H](O)C[C@H]1O [PGF2α-isopropylester, reference compound] ?
Output: label 0

FYI, the data here is from patent US7163959B2.
